Source of measurements: patent US11840686B2

Recorded % inhibition for the following substances
System: human PKK mRNA
Method: Antisense inhibition of human PKK mRNA in HepaRG cells, 1,000 nM, MOE/deoxy/cEt oligonucleotides (Example 3)
Assay type: cell-based
Condition Details: PKK mRNA, HepaRG cells, 1,000 nM antisense oligonucleotide; Table 31
Strand notation (5' to 3'): a small letter for the sugar, then the base; units joined by * are phosphorothioate-linked, units joined directly phosphodiester-linked; [ ] holds rarer units or linkages, { } end groups; capitals alone tell only the bases. e = 2'-O-(2-methoxyethyl) (MOE); k = constrained ethyl (cEt); [5mC] = 5-methylcytosine; d = 2'-deoxy (DNA)
I'd appreciate it if you included the unit after the number.

These solved cases illustrate the format of a correct answer.
548621 (antisense eG*eA*kA*d[5mC]*dA*d[5mC]*dA*dT*d[5mC]*dA*dG*dG*dG*kA*kT*eT) [compound 548621] | 33%
548633 (antisense e[5mC]*eA*kA*dG*dG*d[5mC]*dA*dT*dG*dT*dG*dT*dG*k[5mC]*kA*e[5mC]) [compound 548633] | 41%

Ask: Return reported % inhibition; argument: 548626 (antisense eG*e[5mC]*kA*dG*dT*dA*dT*dG*dT*dT*d[5mC]*dA*dA*kT*k[5mC]*e[5mC]) [compound 548626]
Result: 36%

Ask: Return reported % inhibition; argument: 548638 (antisense e[5mC]*e[5mC]*kT*d[5mC]*dA*dT*dT*dG*d[5mC]*dT*d[5mC]*d[5mC]*dA*k[5mC]*kT*eA) [compound 548638]
Result: 26%

Ask: Return reported % inhibition; argument: 548667 (antisense eT*eG*kG*d[5mC]*dA*dA*dG*d[5mC]*dT*dA*d[5mC]*d[5mC]*dT*kT*k[5mC]*eT) [compound 548667]
Result: 51%

Ask: Return reported % inhibition; argument: 548619 (antisense eG*eG*kT*dT*dG*dG*dT*dG*dG*d[5mC]*dG*dG*dG*kA*kT*e[5mC]) [compound 548619]
Result: 19%

Ask: Return reported % inhibition; argument: 548649 (antisense eG*e[5mC]*k[5mC]*dT*d[5mC]*dT*d[5mC]*dA*dG*dA*d[5mC]*dG*dG*k[5mC]*kA*e[5mC]) [compound 548649]
Result: 0%

Ask: Return reported % inhibition; argument: 548639 (antisense eT*eG*kG*dG*dA*dA*dG*dA*dA*dA*d[5mC]*dT*dA*kG*k[5mC]*eA) [compound 548639]
Result: 10%

Ask: Return reported % inhibition; argument: 547747 (eT*e[5mC]*kA*d[5mC]*dT*dG*dT*dA*d[5mC]*dT*dA*dG*dT*kT*kT*e[5mC]) [compound 547747]
Result: 88%

Ask: Return reported % inhibition; argument: 548615 (antisense eT*eT*kG*dG*dT*dG*dG*d[5mC]*dG*dG*dG*dA*dT*k[5mC]*kG*eG) [compound 548615]
Result: 10%

Ask: Return reported % inhibition; argument: 548651 (antisense eA*eG*kT*d[5mC]*dT*d[5mC]*dT*dT*dT*d[5mC]*d[5mC]*dT*dA*k[5mC]*k[5mC]*e[5mC]) [compound 548651]
Result: 61%

Ask: Return reported % inhibition; argument: 548654 (antisense eA*e[5mC]*k[5mC]*dA*dT*dT*d[5mC]*d[5mC]*dT*dG*dA*d[5mC]*d[5mC]*kA*kT*eG) [compound 548654]
Result: 34%
